- experiment_description: Single-dose, two-cycle crossover PK/bioequivalence trial of S-1 capsules, fasting
- Type: in vivo, Chinese cancer patients
- setup_conditions: human, plasma, oral, 100 mg; fasting conditions
quantity_measured: Tmax

Query block: Which value of Tmax has been reported for Oc1cc(O)c(Cl)cn1 in the records?
Result block: ~1 h

Source of measurements: paper PMC11879792
